pIC50: −log10 of the molar value.
// p110γ (Homo sapiens) pIC50 records

compound | pIC50
Nc1nc2c(c(N3CC[C@H]3c3nn4ccc(F)c4c(=O)n3-c3ccccc3)n1)C(=O)CCN2 | 8.05
C[S+]([O-])c1n[nH]c2ncnc(N3CC[C@H]3c3nn4ccc(Cl)c4c(=O)n3-c3ccccc3)c12 (stereo partly shown) | 6.65
CC(Nc1ncnc2[nH]cnc12)c1cc2ncc(Cl)n2c(=O)n1-c1ccccc1 (stereo not shown) | 8.52
N#Cc1c[nH]c2ncnc(N3CCOCC3c3nn4ccc(Cl)c4c(=O)n3-c3ccccc3)c12 (stereo not shown) | 6.54

---

Collected PI3Kδ IH % @ 1 uM values appear next to each entry.
Target: p110δ/p85α (Homo sapiens)
Sequence (O00329 whole entry): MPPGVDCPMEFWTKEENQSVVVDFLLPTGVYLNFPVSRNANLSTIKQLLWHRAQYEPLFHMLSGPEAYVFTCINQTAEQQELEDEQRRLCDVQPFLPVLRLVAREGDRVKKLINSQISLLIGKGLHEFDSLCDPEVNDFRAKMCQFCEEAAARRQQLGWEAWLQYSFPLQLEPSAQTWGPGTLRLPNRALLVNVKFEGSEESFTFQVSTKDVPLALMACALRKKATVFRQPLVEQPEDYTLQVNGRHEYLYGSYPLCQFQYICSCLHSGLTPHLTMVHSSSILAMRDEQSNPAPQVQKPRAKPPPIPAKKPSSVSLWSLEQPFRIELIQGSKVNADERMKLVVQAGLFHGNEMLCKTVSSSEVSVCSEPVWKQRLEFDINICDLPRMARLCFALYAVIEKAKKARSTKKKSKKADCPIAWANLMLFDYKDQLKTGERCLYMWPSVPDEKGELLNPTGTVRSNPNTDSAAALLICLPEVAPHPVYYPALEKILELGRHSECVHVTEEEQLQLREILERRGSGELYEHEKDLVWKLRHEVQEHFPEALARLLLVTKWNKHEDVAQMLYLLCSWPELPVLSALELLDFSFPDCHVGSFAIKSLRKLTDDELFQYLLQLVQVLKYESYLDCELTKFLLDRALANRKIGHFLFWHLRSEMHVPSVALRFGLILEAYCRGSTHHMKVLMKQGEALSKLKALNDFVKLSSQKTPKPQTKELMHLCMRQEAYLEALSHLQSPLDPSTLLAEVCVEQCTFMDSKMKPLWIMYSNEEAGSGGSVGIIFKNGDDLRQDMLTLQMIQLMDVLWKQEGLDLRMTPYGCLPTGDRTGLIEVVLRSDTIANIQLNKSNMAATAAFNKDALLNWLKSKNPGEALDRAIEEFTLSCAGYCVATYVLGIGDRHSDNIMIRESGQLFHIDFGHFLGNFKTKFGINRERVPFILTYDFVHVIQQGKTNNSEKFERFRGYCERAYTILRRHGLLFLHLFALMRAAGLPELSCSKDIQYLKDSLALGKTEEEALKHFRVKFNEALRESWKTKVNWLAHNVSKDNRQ
Sequence (P27986 whole entry partner): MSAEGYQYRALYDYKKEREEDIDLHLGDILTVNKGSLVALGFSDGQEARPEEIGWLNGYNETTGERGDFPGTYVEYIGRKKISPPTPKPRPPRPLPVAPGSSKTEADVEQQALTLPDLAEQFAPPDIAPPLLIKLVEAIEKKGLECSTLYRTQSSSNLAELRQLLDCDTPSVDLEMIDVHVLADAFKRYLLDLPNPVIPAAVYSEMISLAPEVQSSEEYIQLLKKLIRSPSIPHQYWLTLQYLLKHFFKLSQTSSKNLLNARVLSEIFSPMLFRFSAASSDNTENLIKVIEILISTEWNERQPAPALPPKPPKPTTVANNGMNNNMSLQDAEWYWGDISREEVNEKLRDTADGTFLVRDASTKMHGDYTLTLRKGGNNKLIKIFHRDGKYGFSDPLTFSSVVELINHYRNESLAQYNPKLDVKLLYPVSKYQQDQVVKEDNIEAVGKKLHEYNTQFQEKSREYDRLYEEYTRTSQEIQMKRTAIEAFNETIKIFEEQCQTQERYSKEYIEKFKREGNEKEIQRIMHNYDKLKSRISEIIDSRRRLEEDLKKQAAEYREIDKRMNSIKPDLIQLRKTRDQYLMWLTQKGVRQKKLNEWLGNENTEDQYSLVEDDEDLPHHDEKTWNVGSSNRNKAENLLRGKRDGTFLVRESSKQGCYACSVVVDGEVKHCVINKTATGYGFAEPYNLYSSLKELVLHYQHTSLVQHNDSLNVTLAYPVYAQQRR
Experiment: Transcreener KINASE Assay, kinase inhibition of p110δ/p85α
Format: biochemical
Details: 1 uM test compound
Method: PI3K kinases including p110α/p85α, p110δ/p85α and p110γ are purchased from Invitrogen, and p110β/p85α is from Millipore. Primary screening data and IC50 values are measured using Transcreener™ KINASE Assay (Bellbrook, Catalog #3003-10K). […] It is a universal, homogenous, high throughput screening (HTS) technology using a far-red, competitive fluorescence polarization immunoassay based on the detection of ADP to monitor the activity of enzymes that catalyze group transfer reactions. […]

compound | qualifying_sign | PI3Kδ IH % @ 1 uM, %
O=c1c2c(Cl)ccn2nc([C@@H]2C[C@H](F)CN2c2ncnc3[nH]cnc23)n1-c1cccc(F)c1 | = | 99.7
CC(=O)c1c(C)nc(N)nc1N1CC[C@H]1c1nn2ccc(Cl)c2c(=O)n1-c1ccccc1 | = | 99.1
CC(Nc1ncnc2[nH]cnc12)c1cc2ccc(Cl)n2c(=O)n1-c1ccccc1 (stereo not shown) | > | 100
Cc1nc(N)nc(N2CC[C@H]2c2nn3ccc(Cl)c3c(=O)n2-c2ccccc2)n1 | = | 76.1
C[S+]([O-])c1c[nH]c2ncnc(N3CC[C@H]3c3nn4ccc(Cl)c4c(=O)n3-c3ccc(F)cc3)c12 (stereo partly shown) | = | 59.5
C[S@@+]([O-])c1c[nH]c2ncnc(N3CCC[C@H]3c3nn4ccc(F)c4c(=O)n3-c3ccccc3)c12 | > | 100
CC(Nc1ncnc2[nH]cnc12)c1cc2ccc(Cl)n2c(=O)n1-c1cccc(F)c1 (stereo not shown) | = | 99.2

---

Biological target: p110δ/p85α (Homo sapiens)
Assay: Transcreener KINASE Assay, kinase inhibition of p110δ/p85α
Conditions: read-out: PI3Kδ IC50
IC50 strictly less than 0.02 µM = true (1). Otherwise false (0).

compound | system_name | class_label
Cc1nc(N)nc(N2C[C@H](C)[C@H]2c2nn3ccc(C#N)c3c(=O)n2-c2ccccc2)c1C#N [Compound 499] | p110δ/p85α (Homo sapiens) | true (1)
Nc1ncc(F)c(N2CCC[C@H]2c2nn3ccc(Cl)c3c(=O)n2-c2ccccc2)n1 [Compound 215] | p110δ/p85α (Homo sapiens) | false (0)
Cc1nc(N2CCC[C@H]2c2nn3ccc(F)c3c(=O)n2-c2ccccc2)c2nc[nH]c2n1 [Compound 239] | p110δ/p85α (Homo sapiens) | true (1)
O=c1c2c(Cl)ccn2nc([C@@H]2CCN2c2ncnc3[nH]cc(F)c23)n1-c1ccccc1 [Compound 148] | p110δ/p85α (Homo sapiens) | false (0)
Nc1ncc(C(=O)C(F)(F)F)c(N2CC[C@H]2c2nn3ccc(Cl)c3c(=O)n2-c2ccccc2)n1 [Compound 325] | p110δ/p85α (Homo sapiens) | false (0)
C[C@H]1CN(c2nc(N)nc(N)c2C#N)[C@@H]1c1nn2ccc(Cl)c2c(=O)n1-c1ccccc1 [Compound 481] | p110δ/p85α (Homo sapiens) | true (1)
CC(=O)c1cnc(N)nc1N[C@@H](C)c1cc2ncc(Cl)n2c(=O)n1-c1ccccc1 [Compound 447] | p110δ/p85α (Homo sapiens) | true (1)
